# tgt: Human BCMA (human) (UniProt Q02223)
# methodNotes: SPR, IgG on chip, huBCMA analyte
Each entry below carries its reported kon.
Express the result in M⁻¹ s⁻¹ but write the number alone.

>  <binder>
COMBO_Rd4_0.6nM_C22 (antibody, V domains shown, IgG; also called COM22) VH: EVQLLESGGGLVQPGGSLRLSCAASGFTFSSYAMNWVRQAPGKGLEWVSAISDSGGSRWYADSVKGRFTISRDNSKNTLYLQMNSLRAEDTAVYYCTRYWPMDIWGQGTLVTVSS VL: EIVLTQSPGTLSLSPGERATLSCRASVRVSSTYLAWYQQKPGQAPRLLMYDASIRATGIPDRFSGSGSGTDFTLTISRLEPEDFAVYYCQQYMKWPLTFGQGTKVEIK

>  <unitOfMeasurement>
M⁻¹ s⁻¹

>  <kon>
1.97e+06

$$$$

Note: attention shifts to another entry.
Which kon value belongs to C01_Rd4_0.6nM_C16 (antibody, V domains shown, IgG) VH: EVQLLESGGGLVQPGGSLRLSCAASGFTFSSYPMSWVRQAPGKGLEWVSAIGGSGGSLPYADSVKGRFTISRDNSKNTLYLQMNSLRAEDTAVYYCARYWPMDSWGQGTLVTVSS VL: EIVLTQSPGTLSLSPGERATLSCRASQSVSSTYLAWYQQKPGQAPRLLIYDASSRAPGIPDRFSGSGSGTDFTLTISRLEPEDFAVYYCQQYSSWPLTFGQGTKVEIK ?
1.55e+07
